# assay_system: T1, recombinant human LAG-3-Fc (human, UniProt P18627 23-450)
# T1 construct: also called human LAG-3 (R&D Systems cat no. 2319-L3); LAG3 antigen
# T1 sequence: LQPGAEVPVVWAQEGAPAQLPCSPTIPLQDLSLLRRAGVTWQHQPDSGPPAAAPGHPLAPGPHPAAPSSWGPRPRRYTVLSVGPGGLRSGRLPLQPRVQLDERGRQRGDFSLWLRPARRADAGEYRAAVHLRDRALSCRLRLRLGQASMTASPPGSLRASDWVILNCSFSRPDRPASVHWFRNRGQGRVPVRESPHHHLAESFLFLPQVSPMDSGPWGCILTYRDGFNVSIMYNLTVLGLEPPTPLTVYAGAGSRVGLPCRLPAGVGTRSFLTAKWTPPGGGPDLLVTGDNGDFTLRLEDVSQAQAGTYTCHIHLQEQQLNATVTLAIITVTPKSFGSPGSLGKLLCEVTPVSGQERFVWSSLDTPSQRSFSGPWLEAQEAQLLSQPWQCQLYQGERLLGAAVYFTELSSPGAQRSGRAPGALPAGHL
# protocol_text: BLI (Octet); human LAG-3-Fc amine-coupled to biosensor, VH in solution, 1:1 fit
property_name: koff

# binder, koff
measured = [
    ("VH 1.1 (VHH, Human VH single domain antibody (Humabody) against LAG-3; also called VH single domain antibody 1.1; monovalent LAG-3 VH 1.1) VHH: EVQLVESGGGVVRPGGSLRLSCSASGFTFDDYGMSWVRQAPGKGLEWVSGIHWNGGNSGYADSVKGRFTISRDNAKNSLYLQMNSLRAEDTALYYCARIPREDCSSASCYTDAIDFWGPGTMVTVSS", "0.00089 s⁻¹"),
    ("variant 8 of VH 1.1 (VHH, 4) VHH: EVQLVESGGGVVRPGGSLRLSCAASGFTFNDYGMSWVRQAPGKGLEWVSGIHWNGGNSGYADSVKGRFTISRDNAKNSLYLQMNSLRAEDTALYYCARIPREDCSSTSCYTDAIDFWGPGTMVTVSS", "0.00126 s⁻¹"),
    ("variant 1 of VH 1.1 (VHH) VHH: EVQLVESGGGVVRPGGSLRLSCAASGFTFDDYGMSWVRQAPGKGLEWVSGIHWNGGNSGYADSVKGRFTISRDNAKNSLYLQMNSLRAEDTALYYCARIPREDCSSASCYTDAIDFWGPGTMVTVSS", "0.000912 s⁻¹"),
    ("variant 4 of VH 1.1 (VHH, 4) VHH: EVQLVESGGGVVRPGGSLRLSCAASGFTFDDYGMSWVRQAPGKGLEWVSGIHWIGGNSGYADSVKGRFTISRDNAKNSLYLQMNSLRAEDTALYYCARIPREDCSSASCYTDAIDFWGPGTMVTVSS", "0.000479 s⁻¹"),
    ("variant 9 of VH 1.1 (VHH, 4) VHH: EVQLVESGGGVVRPGGSLRLSCAASGFTFDDYGMSWVRQAPGKGLEWVSGIHWNGDSTGYADSVKGRFTISRDNAKNSLYLQMNSLRAEDTALYHCARIPREDCSSASCYTDAIDFWGPGTMVTVSS", "0.00383 s⁻¹"),
]

Please examine the following record next.
Complete the entry with koff for variant 5 of VH 1.1 (VHH, 4) VHH: EVQLVESGGGVVRPGGSLRLSCAASGFTFNDFGMSWVRQAPGKGLEWVSGIHWNGGNTGYADSVKGRFTISRDNAKNSLYLQMNSLRAEDTALYYCARIPREDCSSASCYTDAIDFWGPGTMVTVSS
0.000517 s⁻¹
